Biological target: T1, SH2 domain of Crkl protein (residues 1-111), H33A variant (UniProt P46109 1-111, H33A)
T1 construct: Crkl adaptor protein, SH2 domain, residues 1-111, His33 replaced by alanine; Site-directed mutant of m1 (QuikChange); source: E. coli BL21 (DE3), purified (HisTrap nickel column, desalting); not shown: His tag, N-terminal, kept
T1 sequence (P46109 1-111 H33A): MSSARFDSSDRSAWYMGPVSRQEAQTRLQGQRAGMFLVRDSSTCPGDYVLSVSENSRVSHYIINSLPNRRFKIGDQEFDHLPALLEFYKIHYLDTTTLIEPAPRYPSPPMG
Assay: stopped-flow fluorescence kinetics (FRET); dansyl-Pax112-123 constant at 2 μM mixed with Crkl-SH2 2 to 10 μM (pseudo-first-order, kon); koff by displacement of the preincubated 2 µM complex with excess non-dansylated Pax112-123 (30 μM); 283 K; 50 mM sodium-acetate pH 5.0, 0.5 M NaCl
Conditions: both partners purified
Square brackets hold non-standard residues; d marks the D form. Ends that are not written are not given here. * marks the point of attachment. pY = N[C@@H](Cc1ccc(OP(=O)(O)O)cc1)C(=O)O; Dansyl = CN(C)c1cccc2c(S(=O)(=O)*)cccc12
MEASURE_NAME: Kd (µM)
All answers are understood in µM, so give the number only.

Give me measured Kd, please, for this binder: Dansyl-GEEEHV[pY]SFPNK (The dansyl group is the FRET acceptor of Trp14 of the SH2 domain; source: synthetic peptide, bought: GenScript) [dansylated Pax_(112–123) peptide (Dans-GEEEHV-pY-SFPNK)]
7.6
